# TARGET: Human α2δ−1 subunit of Cav2.2 calcium channel (Homo sapiens, UniProt P54289)
# Sequence (P54289 25-1103): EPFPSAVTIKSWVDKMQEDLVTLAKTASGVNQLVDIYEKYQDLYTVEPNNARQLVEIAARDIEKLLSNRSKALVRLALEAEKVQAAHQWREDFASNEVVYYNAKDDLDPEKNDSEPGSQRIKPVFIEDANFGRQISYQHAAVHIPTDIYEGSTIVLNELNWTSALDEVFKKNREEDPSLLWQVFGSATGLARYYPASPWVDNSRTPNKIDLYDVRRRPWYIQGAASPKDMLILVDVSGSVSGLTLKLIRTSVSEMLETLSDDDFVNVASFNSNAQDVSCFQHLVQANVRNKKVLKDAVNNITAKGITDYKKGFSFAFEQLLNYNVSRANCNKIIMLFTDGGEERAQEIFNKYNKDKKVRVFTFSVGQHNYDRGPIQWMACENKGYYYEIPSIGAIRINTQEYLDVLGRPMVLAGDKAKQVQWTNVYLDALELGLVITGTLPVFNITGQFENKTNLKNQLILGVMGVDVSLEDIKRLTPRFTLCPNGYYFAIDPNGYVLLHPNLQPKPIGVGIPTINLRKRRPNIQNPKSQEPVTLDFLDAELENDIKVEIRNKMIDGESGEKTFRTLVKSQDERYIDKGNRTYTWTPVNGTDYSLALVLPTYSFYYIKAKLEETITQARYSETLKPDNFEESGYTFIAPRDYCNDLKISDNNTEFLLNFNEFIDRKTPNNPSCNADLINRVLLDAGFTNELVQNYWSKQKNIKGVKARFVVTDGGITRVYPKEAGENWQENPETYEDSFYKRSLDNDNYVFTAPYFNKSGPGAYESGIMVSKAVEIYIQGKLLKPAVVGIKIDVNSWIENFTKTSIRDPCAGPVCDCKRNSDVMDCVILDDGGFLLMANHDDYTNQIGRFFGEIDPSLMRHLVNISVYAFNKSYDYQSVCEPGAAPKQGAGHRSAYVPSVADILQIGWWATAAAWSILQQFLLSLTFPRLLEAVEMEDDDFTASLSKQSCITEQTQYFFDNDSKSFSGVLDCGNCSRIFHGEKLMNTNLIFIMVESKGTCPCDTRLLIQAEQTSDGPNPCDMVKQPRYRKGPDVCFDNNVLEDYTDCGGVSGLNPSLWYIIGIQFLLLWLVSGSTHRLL
# TEST_DESCRIPTION: Human α2δ−1 subunit of Cav2.2 calcium channel assay
# CONDITION_LABEL: expressed as Ki; [3H]-Gabapentin, human α2δ−1 enriched membranes; read-out: Binding α2δ-1
pKi: −log10 of the molar value.
The following molecules are shown together with reported pKi values.

Example entries and their recorded answers appear below.
INPUT_SMILES	pKi
CCOc1ccc(-n2nc3c(N4CC[C@H](NCc5ccncc5)C4)nnc(C)c3c2C)c(F)c1	> 6.30
CCOc1ccc(-n2nc3c(N4CC[C@H](NCc5ccccn5)C4)nnc(C)c3c2C)c(F)c1	> 6.30
CCOc1ccc(-n2nc3c(N4CC[C@H](N(C)Cc5cccc(O)c5)C4)nnc(C)c3c2C)c(F)c1	> 6.30

*Q* Which value of pKi has been reported for CCOc1ccc(-n2nc3c(N4CC[C@H](NCc5cccnc5)C4)nnc(C)c3c2C)c(F)c1 in the records?
*A* > 6.30

*Q* How about this molecule: CCOc1ccc(-n2nc3c(N4CC[C@H](NCc5cccc(O)c5)C4)nnc(C)c3c2C)c(F)c1
*A* > 6.30

*Q* How about this molecule: CCOc1ccc(-n2nc3c(N4CC[C@@H](NCc5cccc(O)c5)C4)nnc(C)c3c2C)c(F)c1
*A* > 6.30
